# System: 565726-208-R1-J5-PDC complex spheroids, growth inhibition;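 further: spheroids exposed to compounds for seven days before readout; 100% = DMSO vehicle control viability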
# method-description: Anticancer human tumor 565726-208-R1-J5-PDC patient-derived pancreatic adenocarcinoma cell line growth inhibition [RAS]
# study-conditions: second compound 0.03 µM; first compound 1 µM; hits give low values
measured-attribute: viability, T/C (%)
Answers are plain numbers, in %.

Example results:
C[C@@H](NC(=O)c1ncnc(N)c1Cl)c1ncc(C(=O)Nc2cc(C(F)(F)F)c(Cl)cn2)s1 + CCn1c(-c2cc(N3CCN(C)CC3)cnc2C(C)OC)c2c3cc(ccc31)-c1csc(n1)CC(NC(=O)C1CC1C)C(=O)N1CCCC(N1)C(=O)OCC(C)(C)C2
37.4
CC1(O)CCCC1n1c(=O)c(C(F)F)cc2cnc(NC3CCN(S(C)(=O)=O)CC3)nc21 (centres undefined) + CCn1c(-c2cc(N3CCN(C)CC3)cnc2C(C)OC)c2c3cc(ccc31)-c1csc(n1)CC(NC(=O)C1CC1C)C(=O)N1CCCC(N1)C(=O)OCC(C)(C)C2
31.2
C=CC(=O)N1CCN(c2nc(OCC3CCCN3C)nc3c(F)c(-c4nc(N)cc(C)c4C(F)(F)F)c(Cl)cc23)C(C)C1 (centres undefined) + CCn1c(-c2cccnc2C(C)OC)c2c3cc(ccc31)N1CCOC(CC(NC(=O)C(C(C)C)N(C)C(=O)C3(F)CCN(C(=O)C#CC(C)(C)N(C)C)CC3)C(=O)N3CCCC(N3)C(=O)OCC(C)(C)C2)C1
104

Here is the next item to consider.
So, NC1c2ccccc2OC12CCN(c1cnc3c(N4CCCc5ncccc54)n[nH]c3n1)CC2 (centres undefined) + CCn1c(-c2cccnc2C(C)OC)c2c3cc(ccc31)N1CCOC(CC(NC(=O)C(C(C)C)N(C)C(=O)C3(F)CCN(C(=O)C#CC(C)(C)N(C)C)CC3)C(=O)N3CCCC(N3)C(=O)OCC(C)(C)C2)C1 ? Its viability, T/C was 62.7
